# procedure details: Solubility pH 7.4
# Assay type: physicochemical
# test parameters: aqueous buffer, Table 1
property measured: solubility (µg/mL)
I only need the number, in µg/mL, no unit after it.

**Query** What solubility value was documented for this compound, Cc1ccc(C#N)cc1-n1c(=N)n(C)c2cnc3ccc(-c4ccnn4C)cc3c21 ?
**Result** 42.5

**Query** What solubility value was documented for this compound, Cc1nc(N2CCNCC2)c(C#N)cc1-n1c(=N)n(C)c2cnc3ccc(-c4ccc(Cl)cc4)cc3c21 ?
**Result** 6

**Query** What solubility value was documented for this compound, COC(=O)/N=c1\n(C)c2cnc3ccc(-c4ccc(C)cc4)cc3c2n1-c1cc(C#N)c(N2CCN(C)CC2)cc1C ?
**Result** 4.3

###

# procedure details: Solubility pH 7.4
# Format: physicochemical
# test parameters: aqueous buffer, Table 1
Listing of recorded solubility by entry.

Consider the worked cases shown below.
{"columns": ["sample smiles", "solubility"],
 "data": [
  ["Cc1ccc(C#N)cc1-n1c(=N)n(C)c2cnc3ccc(-c4cnc5ccccc5c4)cc3c21", "> 44 µg/mL"],
  ["COc1ccccc1-n1c(=N)n(C)c2cnc3ccc(-c4ccc(Cl)cc4)cc3c21", "> 41 µg/mL"],
  ["Cc1ccc(C#N)cc1-n1c(=N)n(C)c2cnc3ccc(-c4cccc(C#N)c4)cc3c21", "> 41 µg/mL"],
  ["Cc1ccc(C#N)cc1-n1/c(=N/C(=N)N)n(C)c2cnc3ccc(-c4ccc(F)cc4)cc3c21", "> 44 µg/mL"]
]}

Attention now shifts to the item below.
**Query** What solubility value was documented for this compound, Cc1ccc(C#N)cc1-n1c(=N)n(C)c2cnc3ccc(-c4ccc(F)cc4)cc3c21 ?
**Result** 3.9 µg/mL

###

# procedure details: PAMPA permeability
# Type: in vitro ADME
# test parameters: Table 1
Listing of recorded Papp by entry.
I only need the number, in ×10⁻⁶ cm/s, no unit after it.

Consider the worked cases shown below.
{"columns": ["sample smiles", "unit label", "Papp"],
 "data": [
  ["Cc1ccc(C#N)cc1-n1/c(=N/C(=N)N)n(C)c2cnc3ccc(-c4ccc(F)cc4)cc3c21", "×10⁻⁶ cm/s", 1.7],
  ["Cc1ccc(C#N)cc1-n1/c(=N/S(N)(=O)=O)n(C)c2cnc3ccc(-c4cccc(F)c4)cc3c21", "×10⁻⁶ cm/s", 1070],
  ["Cn1c(=N)n(-c2cccc(N3CCNCC3)c2)c2c3cc(-c4ccc(Cl)cc4)ccc3ncc21", "×10⁻⁶ cm/s", 28.3]
]}

Attention now shifts to the item below.
**Query** What Papp value was documented for this molecule, Cc1ccc(C#N)cc1-n1c(=N)n(C)c2cnc3ccc(-c4ccnn4C)cc3c21 ?
**Result** 219

###

# procedure details: Solubility pH 7.4
# Type: physicochemical
# test parameters: aqueous buffer, Table 3
Listing of recorded solubility by entry.
I only need the number, in µg/mL, no unit after it.

{"columns": ["sample smiles", "numeric result"],
 "data": [
  ["Cn1c(=N)n(-c2cncnc2)c2c3cc(-c4ccc(Cl)cc4)ccc3ncc21", 16.3]
]}

Attention now shifts to the item below.
**Query** What solubility value was documented for this compound, Cc1ncncc1-n1c(=N)n(C)c2cnc3ccc(-c4ccc(Cl)c(OC(F)(F)F)c4)cc3c21 ?
**Result** 16

###

# procedure details: Solubility pH 7.4
# Assay type: physicochemical
# test parameters: aqueous buffer, Table 3
Label rule, in plain words: solubility of 20 µg/mL and up is yes (1), under 20 µg/mL is no (0).

{"columns": ["sample smiles", "cat"],
 "data": [
  ["Cc1ccc(-c2ccc3ncc4c(c3c2)n(-c2cncnc2)c(=N)n4C)cc1", "no (0)"],
  ["Cn1c(=N)n(-c2ccnc(N)n2)c2c3cc(-c4cccc(F)c4)ccc3ncc21", "yes (1)"],
  ["Cn1c(=N)n(-c2cncnc2)c2c3cc(-c4ccc(Cl)c(OC(F)(F)F)c4)ccc3ncc21", "no (0)"],
  ["Cc1ncncc1-n1c(=N)n(C)c2cnc3ccc(-c4cccc(F)c4)cc3c21", "yes (1)"],
  ["Cn1c(=N)n(-c2nccc(O)n2)c2c3cc(-c4cccc(F)c4)ccc3ncc21", "no (0)"],
  ["COc1cc(-c2ccc3ncc4c(c3c2)n(-c2cncnc2C)c(=N)n4C)ccc1Cl", "no (0)"]
]}

**Query** Check if solubility >= 20 µg/mL (inclusive). Item: Cc1ncncc1-n1c(=N)n(C)c2cnc3ccc(-c4ccc(F)cc4)cc3c21
**Result** no (0)

**Query** Check if solubility >= 20 µg/mL (inclusive). Item: Cn1c(=N)n(-c2nccc(O)n2)c2c3cc(-c4ccc(Cl)cc4)ccc3ncc21
**Result** no (0)

**Query** Check if solubility >= 20 µg/mL (inclusive). Item: Cn1c(=N)n(-c2cncnc2)c2c3cc(-c4ccc(N)nc4)ccc3ncc21
**Result** yes (1)

**Query** Check if solubility >= 20 µg/mL (inclusive). Item: Cc1ncncc1-n1c(=N)n(C)c2cnc3ccc(-c4ccc(N)nc4)cc3c21
**Result** yes (1)

###

Listing of recorded solubility by entry.
# procedure details: Solubility pH 7.4
# Type: physicochemical
# test parameters: aqueous buffer, Table 1

Consider the worked cases shown below.
{"columns": ["compound", "result"],
 "data": [
  ["CC(=O)N1CCN(c2cc(C)c(-n3c(=N)n(C)c4cnc5ccc(-c6ccc(Cl)cc6)cc5c43)cc2C#N)CC1 [Compound 109]", "< 1 µg/mL"],
  ["Cc1cccc(C)c1-n1c(=N)n(C)c2cnc3ccc(-c4ccc(Cl)cc4)cc3c21 [Compound 99]", "> 41 µg/mL"],
  ["Cn1c(=N)n(C2CCN(C3CCNCC3)CC2)c2c3cc(-c4ccc(Cl)cc4)ccc3ncc21 [Compound 97]", "> 47 µg/mL"],
  ["CC(=O)c1cccc(-n2c(=N)n(C)c3cnc4ccc(-c5ccc(Cl)cc5)cc4c32)c1 [Compound 74]", "> 42 µg/mL"],
  ["Cc1nc(N2CCOCC2)c(C#N)cc1-n1c(=N)n(C)c2cnc3ccc(-c4cccc(F)c4)cc3c21 [Compound 142]", "> 49 µg/mL"]
]}

**Query** What solubility value was documented for this compound, Cc1ccc(C#N)cc1-n1c(=N)n(CCO)c2cnc3ccc(-c4ccc(Cl)cc4)cc3c21 [Compound 95] ?
**Result** 27.4 µg/mL

**Query** What solubility value was documented for this compound, Cc1ccc(C#N)cc1-n1/c(=N/C#N)n(C)c2cnc3ccc(-c4ccc(Cl)cc4)cc3c21 [Compound 8] ?
**Result** < 1 µg/mL

**Query** What solubility value was documented for this compound, Cc1cc(N2CC3(COC3)C2)c(C#N)cc1-n1c(=N)n(C)c2cnc3ccc(-c4ccc(Cl)cc4)cc3c21 [Compound 121] ?
**Result** 1.3 µg/mL

**Query** What solubility value was documented for this compound, COC(=O)/N=c1\n(C)c2cnc3ccc(-c4ccc(C)nc4)cc3c2n1-c1cc(C#N)ccc1C [Compound 125] ?
**Result** 12.5 µg/mL

**Query** What solubility value was documented for this compound, Cc1cc(N2CCN(S(C)(=O)=O)CC2)c(C#N)cc1-n1c(=N)n(C)c2cnc3ccc(-c4ccc(Cl)cc4)cc3c21 [Compound 118] ?
**Result** < 1 µg/mL

**Query** What solubility value was documented for this compound, Cn1c(=N)n(C2CC(N3CCOCC3)C2)c2c3cc(-c4ccc(Cl)cc4)ccc3ncc21 (stereo not shown) [Compound 58] ?
**Result** > 44 µg/mL

**Query** What solubility value was documented for this compound, Cn1c(=N)n(-c2cc(C#N)ccc2OC(F)(F)F)c2c3cc(-c4ccc(Cl)cc4)ccc3ncc21 [Compound 54] ?
**Result** < 1 µg/mL

###

# procedure details: Solubility pH 7.4
# Type: physicochemical
# test parameters: aqueous buffer, Table 1
Listing of recorded solubility by entry.
I only need the number, in µg/mL, no unit after it.

{"columns": ["molecule", "property measured", "numeric result"],
 "data": [
  ["CC(=O)NC1CCN(c2cc(C)c(-n3c(=N)n(C)c4cnc5ccc(-c6ccc(Cl)cc6)cc5c43)cc2C#N)CC1 [Compound 132]", "solubility", 4.6]
]}

**Query** What solubility value was documented for this molecule, C/N=c1\n(C)c2cnc3ccc(-c4ccc(Cl)cc4)cc3c2n1-c1cc(C#N)ccc1C [Compound 6] ?
**Result** 9.6

**Query** What solubility value was documented for this molecule, Cc1ccc(C#N)cc1-n1c(=N)n(C)c2cnc3ccc(-c4cccc(Cl)c4)cc3c21 [Compound 33] ?
**Result** 14.5

###

Listing of recorded solubility by entry.
# procedure details: Solubility pH 7.4
# Type: physicochemical
# test parameters: aqueous buffer, Table 2
I only need the number, in µg/mL, no unit after it.

Consider the worked cases shown below.
{"columns": ["sample smiles", "property measured", "numeric result"],
 "data": [
  ["N=c1ccc2cnc3ccc(-c4ccc(Cl)cc4)cc3c2n1-c1cccc(C(F)(F)F)c1", "solubility", 11.5],
  ["N=c1ccc2cnc3ccc(-c4ccc(Cl)cc4)cc3c2n1-c1cccc(Cl)c1", "solubility", 20.7],
  ["CN(C)CCN1CCN(C(=O)c2ccc(-n3/c(=N\\C#N)ccc4cnc5ccc(-c6ccc(Cl)cc6)cc5c43)cc2)CC1", "solubility", 3.2]
]}

Attention now shifts to the item below.
**Query** What solubility value was documented for this compound, N#Cc1cccc(-n2c(=N)ccc3cnc4ccc(-c5ccc(Cl)cc5)cc4c32)c1 ?
**Result** 25.9
